- Test system: UACC-62 melanoma
- Experiment Summary: NCI-60 one-dose screen, 48 h (100 = growth as untreated, 0 = no growth, -100 = all killed)
- Condition Label: 10 µM
- Description: Growth inhibition of the UACC-62 human tumor cell line is measured as a screen for anti-cancer activity. Cells are grown in 96 well plates and exposed to the test compound for 48 hours. Compounds are tested at a single concentration, which is 10^-5 M for most compounds. The reported endpoint is percent growth (GI% or GIPRCNT), where numbers from 0 - 100% represent growth inhibition, and numbers from -100% - 0 represent cell death. For example, a value of 40 represents 60% growth inhibition. […]
The panel holds about 83,000 compounds, 20% with a hit somewhere; the sample as a whole holds those more often.
Below, each entry is listed with its recorded growth.
Parameter Measured: growth (%)

1. COc1cc2c(cc1OCCCCCCN1CCN(CC(=O)Nc3ccc(Cl)cc3C(=O)c3ccccc3Cl)CC1)N=CC1CCCN1C2=O (centres undefined) : -98.7
2. COc1cc(CNCCCCCCN2C(=O)c3cccc4cccc(c34)C2=O)ccc1O : 80.5
3. CCCCCCNC(=O)Oc1ccc(/C(=C(/CC)Cc2ccccc2)c2ccc(OCCN3CCCCC3)cc2)cc1 : 99.5
4. CN(C)Cc1cn(-c2ncc(-c3ccc(C(F)(F)F)cc3)c(NC3CCCCCC3)n2)nn1 : 97.6
5. Clc1ccc2c(NCCCNc3nccc(Nc4ccc(Br)cc4)n3)ccnc2c1 : -87.9
6. O=C(Nc1nc2ccc(F)cc2s1)c1cc(-c2ccc(F)cc2)n2nc(-c3ccccc3)cc2n1 : 66.3
7. Cc1ccc(CC#N)cc1C : 103
8. Cc1cc(C)c(NC(=O)c2sc3nc4c(cc3c2N)C(=O)CCC4)c(C)c1 : 23.2
9. COc1ccccc1CNCCN1C(=O)c2ccc3c4c(ccc(c24)C1=O)C(=O)N(CCNCc1ccccc1OC)C3=O : -93.3

====

- Test system: MOLT-4 leukemia
- Experiment Summary: NCI-60 one-dose screen, 48 h
- Condition Label: 10 µM
Compounds without any hit were thinned out: in the full panel of roughly 83,000, 20% have a hit. Calls of active or inactive are those of the source. Rule for the calls: active = growth percent below 10; inactive = the rest.
Outcomes: T = active, F = inactive

1) CC(C)=CCc1ccc(O)c(=O)cc1C(C)C : T
2) COc1ccc(S(=O)(=O)NCCCNc2nccc(-c3c(-c4ccc(F)cc4)nc4sccn34)n2)cc1 : F
3) CSc1nc(=O)n(Cc2ccc(F)cc2)c(=O)n1Cc1ccc(C)cc1 : F
4) Cc1cc(Cc2cc(C)c(O)c(C)c2)cc(C)c1O : F
5) O=C1NC(=O)c2ncccc21 : F
6) O=[N+]([O-])c1ccc(Oc2cccnc2)c([N+](=O)[O-])c1 : F
7) COc1ccc(CN2CCC(N3CCCC3=O)c3cc(Cl)ccc32)cc1 (centres undefined) : F
8) N#Cc1ncc(-c2ccc(C(F)(F)F)cc2)c(NCc2cc(C(F)(F)F)cc(C(F)(F)F)c2)n1 : F
9) N#Cc1ncc(-c2cc(F)c(F)c(F)c2)c(NC2CCCCCC2)n1 : F
10) c1ccc2c(c1)oc1c3c(ccc12)NCCC3 : F
11) C(CCCC1=NCCO1)CCCC1=NCCO1 : F
12) CCN1CCC2(CC1)OC(c1ccccc1)C(c1ccccc1)O2 (centres undefined) : F
13) COc1ccc2c(c1)O/C(=C\c1ccc([N+](=O)[O-])s1)C2=O : F
14) CC[C@H]1CCC/C=C/[C@@H]2C[C@H](O)C[C@H]2[C@H](O)/C=C/C(=O)O1 : T
15) COc1cc(-c2nc(Nc3nc4ccccc4s3)[nH]c(=O)c2C#N)cc(OC)c1O : F
16) O=C(/C(=C/c1ccccc1)CN1CCCCC1)c1ccccc1 : T
17) CCCCCCCC(C)NCCO (centres undefined) : F
18) c1ccc2c(-c3nc(N4CCOCC4)c4c5c(sc4n3)CCCCCC5)cccc2c1 : F
19) CC(=O)c1nc2ccccc2n1CCNC(N)=O : F
20) Cn1c([N+](=O)[O-])cnc1/C=C1\Oc2ccc(Cl)cc2C1=O : T
21) CN1CCC2(CC1)NC(=O)c1c(c3ccc(Cl)c(Cl)c3n1C)C2C#N (centres undefined) : F
22) Cc1occc1-c1nnc(SCC(=O)c2ccc(NC(=O)CC(C)C)cc2)o1 : F
23) CCCCOC(=O)Oc1ccc(C(=O)Oc2ccc(OCC)cc2)cc1 : F
24) COc1ccccc1/C=C/C(=O)c1ccccc1 : F

====

Below, each entry is listed with its recorded growth.
- System: UACC-257 melanoma
- Experiment Summary: NCI-60 one-dose screen, 48 h (100 = growth as untreated, 0 = no growth, -100 = all killed)
- Condition Label: 10 µM
The panel holds about 83,000 compounds, 20% with a hit somewhere; the sample as a whole holds those more often.
Parameter Measured: growth (%)

1. O=C(NC(Cc1ccc(O)cc1)C(=O)N=Nc1c(O)[nH]c2ccccc12)c1ccccc1 (stereo unspecified) : 97.5
2. CCCCCCCCCCCCCCCCN(C(C)c1ccccc1)S(=O)(=O)c1ccc(OC)c(N)c1 (stereo unspecified) : 108
3. COc1cc(Nc2ncnc(Nc3ccc4c(n3)NC(=O)C(C)(C)O4)n2)cc(OC)c1OC : 30.2
4. c1ccc2c(-c3nc(N4CCOCC4)c4c5c(sc4n3)CCCCCC5)cccc2c1 : 110
5. COc1ccccc1/C=C/C(=O)c1ccccc1 : 94.3
6. c1ccc2c(c1)oc1c3c(ccc12)NCCC3 : 95.4

====

- System: OVCAR-5 ovarian
- Experiment Summary: NCI-60 one-dose screen, 48 h (100 = growth as untreated, 0 = no growth, -100 = all killed)
- Condition Label: 10 µM
The panel holds about 83,000 compounds, 20% with a hit somewhere; the sample as a whole holds those more often.
Parameter Measured: growth (%)

1. O=C(Nc1cccc(-n2cc(-c3ccncc3)c(-c3cc(O)cc(Cl)c3)n2)c1)Nc1ccc(Cl)c(C(F)(F)F)c1 : 59.3
2. COC(=O)C1=NNC(=S)N(c2cc(C)[nH]n2)C(=O)C1 : 108
3. COC(=O)[C@@H]1[C@H](O)[C@H](C)[C@H](O)[C@@](C)(O)/C=C\C=C(C)C(=O)Nc2c(C)c(OC(C)=O)c3c(c2O)C(=O)C(C)=C2OCOC(=C23)C(C)=C[C@@](C)(O)[C@H](O)[C@@H](C)[C@H]1OC(C)=O : 97.7

====

- System: HCT-15 colon
- Experiment Summary: NCI-60 one-dose screen, 48 h (100 = growth as untreated, 0 = no growth, -100 = all killed)
- Condition Label: 10 µM
About 83,000 compounds went through this panel and 20% of them were active in at least one assay; those are over-represented in the sample as a whole.
Parameter Measured: growth (%)

1. CCC(=O)N1C/C(=C/c2ccc(Br)cc2)C(=O)/C(=C/c2ccc(Br)cc2)C1 : -32.3
2. O=C1/C(=C\c2ccc(Br)cc2)CN(C(=O)c2ccccc2F)C/C1=C\c1ccc(Br)cc1 : 5.63
3. N#Cc1ncc(-c2cc(F)c(F)c(F)c2)c(NC2CCCCCC2)n1 : 85.2
4. O=c1[nH]c2ccc(Cl)cc2c2ccccc12 : 93.3
5. O=C(Nc1ccc(OS(=O)(=O)c2ccccc2)cc1)C12CC3CC(CC(C3)C1)C2 : 29.9
6. CC(C)(Cl)CCC1=C(Cl)C(=O)c2ccccc2C1=O : 22.7
7. CN(C)N=Nc1nn(C(=O)Nc2ccc(Cc3ccccc3)cc2)c2ccccc12 : 36.2
8. CN(C)C(=S)N/N=C\C=N/NC(=S)N(C)C : 31.5
9. COc1cc(-c2cc(/C=C/C(=O)c3ccc(N)cc3)[nH]n2)cc(OC)c1OC : -22.3
10. CC(C)N(CCNc1nc(C(Cl)(Cl)Cl)nc2cc(Cl)ccc12)C(C)C : -38.4

====

- Test system: HOP-62 NSCLC
- Experiment Summary: NCI-60 one-dose screen, 48 h (100 = growth as untreated, 0 = no growth, -100 = all killed)
- Condition Label: 10 µM
The panel holds about 83,000 compounds, 20% with a hit somewhere; the sample as a whole holds those more often. The source made the active and inactive calls. How the source made its calls: active means growth percent below 10; inactive means the rest.
Below, each entry is listed with its recorded growth.
Parameter Measured: growth

1. Nc1nc(N)c2c(ccc3nccc32)[nH]1 : 74.8% (inactive)
2. FC(F)(F)c1ccc2nc(-c3nc(-c4ccccc4)n4ccccc34)[nH]c2c1 : 110% (inactive)
3. COc1ccc(-n2c(SCc3cc(OC)c(OC)c(OC)c3)nc3ccc(C)cc3c2=O)cc1 : 65.2% (inactive)
4. CC(=O)c1nc2ccccc2n1CCNC(N)=O : 70.3% (inactive)
5. CN(Cc1ccccc1)Cc1ccc([N+](=O)[O-])cc1I : 101% (inactive)
6. CN(C)CC(O)c1ccc2cc(Br)c3ccccc3c2c1 (stereo unspecified) : 62.1% (inactive)
